- TESTED_ON: T1, human 5T4-His protein (human, UniProt Q13641 32-355)
- T1 construct: also called recombinant 5T4 protein (human 5T4-his tag); human 5T4 protein; not shown: His tag
- T1 sequence (looked up): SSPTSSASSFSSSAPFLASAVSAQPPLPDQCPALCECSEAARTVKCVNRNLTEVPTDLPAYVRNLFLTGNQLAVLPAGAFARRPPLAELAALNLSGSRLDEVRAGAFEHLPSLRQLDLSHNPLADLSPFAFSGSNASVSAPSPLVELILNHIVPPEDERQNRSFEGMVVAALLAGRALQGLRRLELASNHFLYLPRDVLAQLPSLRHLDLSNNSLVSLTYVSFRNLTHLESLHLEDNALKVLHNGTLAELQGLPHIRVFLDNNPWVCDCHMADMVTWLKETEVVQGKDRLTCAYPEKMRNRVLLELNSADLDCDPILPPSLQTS
- EXPERIMENTAL_DETAILS: SPR Biacore, Protein A capture
MEASUREMENT_KIND: koff (s⁻¹)
Report the figure in s⁻¹ without appending any unit label.

Worked set:
INSERT INTO measurements (binder, measurement_kind, value_reported) VALUES
  ('353H11 chimeric antibody (antibody, V domains shown, chimeric mAb) VH: QVQLQQPGTELVKPGASVKLSCKASDYTFTSYWMHWVKQRPEQGLEWIGNINPSNGNTNYNEKFKNKATLTVDKSSSTAYMQLSSLTFEDSAVYYCARGGWDFDYWGQGTTLTVSS VL: QVVLTQSPAIMSASPGEKVTMTCSASSSVRYMHWYQQRSGTSPKRWIYDTSKLTSGVPARFSGSGSGTSYSLTISSMEAEDAATYYCQLWTSKPPWTFGGGTKLEIR', 'koff', '9.63e-05'),
  ('95F10 chimeric antibody (antibody, V domains shown, chimeric mAb) VH: QVQLQQSGPEVVNPGASVKISCKASGYTFTDYYMNWVKQSRGKSLEWIGDINPNNGGTNYNQKFKDKATLTVDKSSNTAYMELRSLTSENSAVYYCAKEGPPGAMDYWGQGTSVTVSS VL: NIVMTQTPKFLLVSAGDRVTITCKASQSVSNHVAWYQQKPGQSPKLLIYYVSNRYIGVPDRFTGSGYGTDFTFTISTVQAEDLAVYFCQQVYSSPFTFGGGTRLEMK', 'koff', 0.00012),
  ('159D5 chimeric antibody (antibody, V domains shown, chimeric mAb) VH: DVQLVESGGGLVQPGGSRKLSCTASGFTFSNFGMHWVRQAPETGLEWVAYISSGSSTFYYADSVKGRFTISRDNPKNTLFLQMTSLRSEDTAMYFCARSPAYYRYGLDYWGQGTTLTVSS VL: DIVLTQSPASLAVSLGQRATISCRASQSVSSSTFSYMHWYQQKPGQPPKLLIKSSSNLESGVPARFSGSGSGTDFTLNIHPVEEEDTATYYCQHSWEIPYTFGGGTKLEIK', 'koff', 0.00024);

Ask: Fill in the blank: the reported koff of 85B10 chimeric antibody (antibody, V domains shown, chimeric mAb) VH: QVQLQQSGPELVKPGASVKISCKASGYTFTAYYVNWVKQSHGKSLEWIGDINPNNGGTNYNQKFKGKATLTVDMSSSTAYMELRSLTSEDSAVYYCAKEGPPGAMDYWGQGTSVTVSS VL: SIVLTQTPKFLLVSAGDRVPITCKASQSVSNNVAWYQQKPGQSPKLLIYYASNPYTGVPDRFTGSGYGTDFTFTITTVQAEDLAVYFCQQVYSSPFTFGGGTKLEMK is ____.
Result: 0.000125
